test target: MycN (Homo sapiens, UniProt P04198)
Construct: endogenous in cells; host or cells: SK-N-BE(2)
Sequence (P04198 whole entry): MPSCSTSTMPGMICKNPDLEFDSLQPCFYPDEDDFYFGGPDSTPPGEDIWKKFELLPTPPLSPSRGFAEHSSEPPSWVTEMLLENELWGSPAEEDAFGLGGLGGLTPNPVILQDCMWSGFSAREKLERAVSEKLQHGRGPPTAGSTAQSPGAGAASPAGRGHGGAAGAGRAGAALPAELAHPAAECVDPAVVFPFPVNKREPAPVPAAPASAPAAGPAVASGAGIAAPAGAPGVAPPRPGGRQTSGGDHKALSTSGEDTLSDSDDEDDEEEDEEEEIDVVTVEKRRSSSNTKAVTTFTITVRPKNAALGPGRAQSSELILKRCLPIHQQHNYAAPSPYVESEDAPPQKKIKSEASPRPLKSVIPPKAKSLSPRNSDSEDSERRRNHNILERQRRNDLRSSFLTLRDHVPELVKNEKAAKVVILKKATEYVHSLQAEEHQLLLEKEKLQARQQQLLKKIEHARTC
method notes: Degradation of MycN protein in SK-N-BE(2) cells, JESS/Western blot of lysates
Assay type: cell-based
stated conditions: SKNBE2, 24 h, SKNBE2 cells, 24 h, 1 μM; read-out: % Degradation of MycN (SKNBE2) 24 h, 1 μM
Method: For L363 cells (suspension), 1E6 cells were plated into each well of a 6 well plate. For SK-N-BE(2) cells (adherent), 5E5 cells were plated into each well of a 6 well dish. […] Once an appropriate lysate concentration and antibody concentration was determined, samples were screened in the JESS technology (Protein Simple, San Jose, CA—https://www.proteinsimple.com/jess.html). […]

compound	Dmax at 1 µM
CN1CCCC2(C1)CN(c1nccc(Nc3cc(C4CC4)[nH]n3)n1)C2 [Compound 104]	< 20%
COC1CN(CC23CC(C2)N(c2nccc(Nc4cc(C5CCCC5)[nH]n4)n2)C3)C1 [Compound 177]	< 20%
O=S1(=O)CCN(CC23CC(C2)N(c2nccc(Nc4cc(C5CCCC5)[nH]n4)n2)C3)CC1 [Compound 73]	20 to 49%
CNC[C@@H]1CCN(c2nccc(Nc3cc(C4CC4)[nH]n3)n2)C1 [Compound 21]	< 20%
CN(C)CCCN(C)c1nccc(Nc2cc(C3CC3)[nH]n2)n1 [Compound 48]	< 20%
c1cc(Nc2cc(C3CC3)[nH]n2)nc(N2CC3(CCCNC3)C2)n1 [Compound 105]	< 20%
CNCCCN(C)c1nccc(Nc2cc(C3CC3)[nH]n2)n1 [Compound 101]	< 20%
CNC[C@@H]1CCN(c2nccc(Nc3cc(C4CCCC4)[nH]n3)n2)C1 [Compound 36]	< 20%
CNCC12CC(C1)N(c1nccc(Nc3cc(C4CCCC4)[nH]n3)n1)C2 [Compound 31]	80 to 100%
c1cc(Nc2cc(C3CC3)[nH]n2)nc(N2CC3(CCNC3)C2)n1 [Compound 25]	20 to 49%
CNC[C@H]1CN(c2nccc(Nc3cc(C4CCCC4)[nH]n3)n2)C[C@H]1F [Compound 181]	< 20%
